system: SRPK1(h) (Homo sapiens)
Sequence (Q96SB4 whole entry): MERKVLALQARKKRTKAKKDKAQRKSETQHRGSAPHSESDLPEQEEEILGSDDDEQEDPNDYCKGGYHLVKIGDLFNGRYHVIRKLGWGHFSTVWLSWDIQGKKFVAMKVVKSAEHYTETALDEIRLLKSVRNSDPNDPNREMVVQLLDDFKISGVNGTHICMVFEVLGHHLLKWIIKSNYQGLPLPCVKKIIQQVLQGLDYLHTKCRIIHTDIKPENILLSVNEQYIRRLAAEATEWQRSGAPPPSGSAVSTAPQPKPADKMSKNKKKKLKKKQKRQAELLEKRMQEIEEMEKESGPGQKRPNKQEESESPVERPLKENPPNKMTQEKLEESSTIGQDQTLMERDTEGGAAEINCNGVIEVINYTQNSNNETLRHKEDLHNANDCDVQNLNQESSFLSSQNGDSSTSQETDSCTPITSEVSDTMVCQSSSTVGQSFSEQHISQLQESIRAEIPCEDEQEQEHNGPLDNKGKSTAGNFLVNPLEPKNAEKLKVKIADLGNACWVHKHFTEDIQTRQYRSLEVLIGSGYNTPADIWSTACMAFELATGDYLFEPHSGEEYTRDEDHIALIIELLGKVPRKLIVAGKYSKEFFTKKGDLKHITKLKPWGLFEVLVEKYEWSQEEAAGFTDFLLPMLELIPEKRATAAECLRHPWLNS
assay_explanation: Kinase Profiling Assay
Type: biochemical
conditions: 100 μM peptide
Experimental: Every kinase activity measurement was conducted in duplicate. In addition to determining the IC50 of the compound, the specificity of MK2 inhibitory peptides was assessed by examining activities of all 266 human kinases available for testing in the Millipore kinase profiling service (Table 1).
measured_property: SRPK1(h) % activity (%)

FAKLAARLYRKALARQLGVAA [MMI-0300]	90
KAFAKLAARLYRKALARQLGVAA [MMI-0400]	96
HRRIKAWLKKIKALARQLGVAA (Mammalian) [MMI-0500]	80
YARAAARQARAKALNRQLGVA (Mammalian) [MMI-0200]	93

###

# Lookup of reported WNK2(h) % activity keyed by entry
system: WNK2(h) (Homo sapiens, UniProt Q9Y3S1)
Sequence (Q9Y3S1 whole entry): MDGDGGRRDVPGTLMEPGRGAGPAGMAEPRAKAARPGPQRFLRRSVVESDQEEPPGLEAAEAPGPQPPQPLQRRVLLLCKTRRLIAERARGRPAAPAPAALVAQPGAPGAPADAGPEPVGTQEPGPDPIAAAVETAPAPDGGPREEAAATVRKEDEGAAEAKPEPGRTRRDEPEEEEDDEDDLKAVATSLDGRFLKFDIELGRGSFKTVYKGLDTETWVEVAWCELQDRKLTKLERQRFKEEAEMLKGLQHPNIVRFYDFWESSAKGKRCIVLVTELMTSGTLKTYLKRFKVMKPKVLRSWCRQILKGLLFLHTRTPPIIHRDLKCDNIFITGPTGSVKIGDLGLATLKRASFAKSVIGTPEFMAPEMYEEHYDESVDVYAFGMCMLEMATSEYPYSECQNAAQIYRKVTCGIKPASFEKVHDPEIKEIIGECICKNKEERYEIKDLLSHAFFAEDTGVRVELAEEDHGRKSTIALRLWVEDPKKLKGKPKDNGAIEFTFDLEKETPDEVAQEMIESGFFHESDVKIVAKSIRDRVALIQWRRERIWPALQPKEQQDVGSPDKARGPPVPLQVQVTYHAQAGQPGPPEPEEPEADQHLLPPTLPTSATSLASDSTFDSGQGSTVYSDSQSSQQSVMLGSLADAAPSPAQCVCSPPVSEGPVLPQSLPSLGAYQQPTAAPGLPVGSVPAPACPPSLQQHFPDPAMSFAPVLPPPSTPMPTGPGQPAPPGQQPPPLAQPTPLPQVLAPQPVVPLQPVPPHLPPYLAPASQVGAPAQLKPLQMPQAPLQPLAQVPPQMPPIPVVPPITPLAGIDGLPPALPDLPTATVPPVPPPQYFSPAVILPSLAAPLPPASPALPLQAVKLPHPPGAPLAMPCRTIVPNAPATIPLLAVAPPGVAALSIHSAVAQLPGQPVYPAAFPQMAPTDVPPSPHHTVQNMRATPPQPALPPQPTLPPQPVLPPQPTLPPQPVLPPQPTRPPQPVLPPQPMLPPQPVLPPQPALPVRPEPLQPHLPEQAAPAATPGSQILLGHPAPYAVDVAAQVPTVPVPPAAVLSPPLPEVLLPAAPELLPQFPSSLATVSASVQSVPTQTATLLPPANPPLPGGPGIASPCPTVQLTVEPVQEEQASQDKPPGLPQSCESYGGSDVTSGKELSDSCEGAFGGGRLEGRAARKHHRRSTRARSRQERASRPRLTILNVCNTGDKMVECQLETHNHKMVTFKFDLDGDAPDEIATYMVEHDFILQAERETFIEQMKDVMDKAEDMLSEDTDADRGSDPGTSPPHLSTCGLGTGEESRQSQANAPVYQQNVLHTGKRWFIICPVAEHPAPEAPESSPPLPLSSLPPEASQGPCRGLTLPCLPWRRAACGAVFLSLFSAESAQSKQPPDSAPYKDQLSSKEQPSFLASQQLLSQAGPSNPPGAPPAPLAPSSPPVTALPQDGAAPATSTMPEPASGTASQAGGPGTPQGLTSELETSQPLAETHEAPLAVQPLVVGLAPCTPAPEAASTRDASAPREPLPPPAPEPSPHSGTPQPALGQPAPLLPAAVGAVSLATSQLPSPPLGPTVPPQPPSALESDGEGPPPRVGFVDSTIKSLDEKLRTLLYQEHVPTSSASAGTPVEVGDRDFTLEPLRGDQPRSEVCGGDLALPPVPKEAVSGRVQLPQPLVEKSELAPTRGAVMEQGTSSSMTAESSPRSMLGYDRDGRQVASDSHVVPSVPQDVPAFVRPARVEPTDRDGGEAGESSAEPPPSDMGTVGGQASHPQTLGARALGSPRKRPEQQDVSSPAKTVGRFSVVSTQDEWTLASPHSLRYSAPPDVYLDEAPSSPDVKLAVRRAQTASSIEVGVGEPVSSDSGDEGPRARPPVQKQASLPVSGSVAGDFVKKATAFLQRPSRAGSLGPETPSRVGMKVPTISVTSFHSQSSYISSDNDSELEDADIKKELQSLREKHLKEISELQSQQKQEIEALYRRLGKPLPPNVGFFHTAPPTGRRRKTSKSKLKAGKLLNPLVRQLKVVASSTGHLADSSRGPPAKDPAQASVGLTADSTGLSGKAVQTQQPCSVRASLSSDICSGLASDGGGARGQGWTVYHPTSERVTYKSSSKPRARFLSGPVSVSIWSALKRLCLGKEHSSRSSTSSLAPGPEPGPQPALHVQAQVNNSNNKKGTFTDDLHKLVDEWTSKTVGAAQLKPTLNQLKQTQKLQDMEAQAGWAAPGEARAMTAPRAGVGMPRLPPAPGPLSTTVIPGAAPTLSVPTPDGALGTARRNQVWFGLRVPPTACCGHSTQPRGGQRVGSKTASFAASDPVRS
assay_explanation: Kinase Profiling Assay
Assay type: biochemical
conditions: 100 μM peptide
measured_property: WNK2(h) % activity (%)

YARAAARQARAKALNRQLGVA (Mammalian) [MMI-0200]	94
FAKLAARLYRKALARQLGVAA [MMI-0300]	64
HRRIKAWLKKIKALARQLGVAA (Mammalian) [MMI-0500]	8
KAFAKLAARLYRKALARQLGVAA [MMI-0400]	54

###

system: EphB1(h) (Homo sapiens)
Sequence (P54762 18-984): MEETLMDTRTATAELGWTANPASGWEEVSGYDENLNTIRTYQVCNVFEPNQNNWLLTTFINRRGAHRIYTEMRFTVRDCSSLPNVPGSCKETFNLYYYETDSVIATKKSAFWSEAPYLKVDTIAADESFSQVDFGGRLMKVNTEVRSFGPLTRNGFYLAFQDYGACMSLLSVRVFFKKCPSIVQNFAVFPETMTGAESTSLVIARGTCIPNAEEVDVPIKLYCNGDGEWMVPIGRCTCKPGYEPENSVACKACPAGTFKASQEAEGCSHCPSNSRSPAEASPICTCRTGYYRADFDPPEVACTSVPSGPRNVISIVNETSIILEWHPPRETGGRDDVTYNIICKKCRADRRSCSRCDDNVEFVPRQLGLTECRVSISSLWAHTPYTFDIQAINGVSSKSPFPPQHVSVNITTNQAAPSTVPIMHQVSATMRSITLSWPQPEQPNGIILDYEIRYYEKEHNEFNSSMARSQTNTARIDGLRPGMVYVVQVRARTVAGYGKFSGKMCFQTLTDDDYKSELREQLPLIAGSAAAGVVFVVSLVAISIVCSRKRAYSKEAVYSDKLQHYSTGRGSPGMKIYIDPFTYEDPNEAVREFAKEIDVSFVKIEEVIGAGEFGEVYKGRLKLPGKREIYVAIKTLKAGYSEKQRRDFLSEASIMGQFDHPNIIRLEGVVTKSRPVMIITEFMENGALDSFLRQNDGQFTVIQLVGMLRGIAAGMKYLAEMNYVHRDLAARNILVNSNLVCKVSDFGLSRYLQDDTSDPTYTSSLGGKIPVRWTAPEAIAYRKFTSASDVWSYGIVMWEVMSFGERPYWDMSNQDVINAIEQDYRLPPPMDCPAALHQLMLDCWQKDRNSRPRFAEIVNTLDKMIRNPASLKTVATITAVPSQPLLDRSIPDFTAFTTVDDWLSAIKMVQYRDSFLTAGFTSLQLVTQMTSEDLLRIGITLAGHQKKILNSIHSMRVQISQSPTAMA
assay_explanation: Kinase Profiling Assay
Type: biochemical
conditions: 100 μM peptide
measured_property: EphB1(h) % activity (%)

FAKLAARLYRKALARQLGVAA [MMI-0300]	44
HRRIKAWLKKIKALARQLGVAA (Mammalian) [MMI-0500]	37
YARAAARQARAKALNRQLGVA (Mammalian) [MMI-0200]	95
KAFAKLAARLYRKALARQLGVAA [MMI-0400]	58

###

system: PAK4(h) (Homo sapiens)
assay_explanation: Kinase Profiling Assay
Assay type: biochemical
conditions: 100 μM peptide
measured_property: PAK4(h) % activity (%)

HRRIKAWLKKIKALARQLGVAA (Mammalian) [MMI-0500]	86
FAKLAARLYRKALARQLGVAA [MMI-0300]	94
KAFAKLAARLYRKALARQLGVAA [MMI-0400]	89
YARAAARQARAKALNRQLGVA (Mammalian) [MMI-0200]	98

###

system: NEK2(h) (Homo sapiens, UniProt P51955)
Sequence (P51955 1-445): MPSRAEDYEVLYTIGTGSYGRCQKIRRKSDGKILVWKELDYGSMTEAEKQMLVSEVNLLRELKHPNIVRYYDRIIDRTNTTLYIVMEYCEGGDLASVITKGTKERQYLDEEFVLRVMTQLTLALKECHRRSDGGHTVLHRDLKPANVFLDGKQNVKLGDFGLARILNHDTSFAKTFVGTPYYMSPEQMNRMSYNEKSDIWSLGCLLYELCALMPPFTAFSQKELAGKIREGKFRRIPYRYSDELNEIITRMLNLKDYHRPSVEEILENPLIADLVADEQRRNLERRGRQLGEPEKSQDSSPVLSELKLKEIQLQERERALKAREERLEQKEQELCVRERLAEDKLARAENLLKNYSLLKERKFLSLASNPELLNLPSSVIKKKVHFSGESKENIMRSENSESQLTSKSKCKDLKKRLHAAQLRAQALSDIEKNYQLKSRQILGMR
assay_explanation: Kinase Profiling Assay
Assay type: biochemical
conditions: 100 μM peptide
# Lookup of reported NEK2(h) % activity keyed by entry
measured_property: NEK2(h) % activity (%)

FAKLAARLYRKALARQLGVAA [MMI-0300]	78
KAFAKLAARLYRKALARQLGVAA [MMI-0400]	61
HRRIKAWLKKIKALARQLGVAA (Mammalian) [MMI-0500]	0
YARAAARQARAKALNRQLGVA (Mammalian) [MMI-0200]	97

###

system: CaMKIδ(h) (Homo sapiens, UniProt Q8IU85)
assay_explanation: Kinase Profiling Assay
Format: biochemical
conditions: 100 μM peptide
measured_property: CaMKIδ(h) % activity (%)

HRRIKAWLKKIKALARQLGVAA (Mammalian) [MMI-0500]	0
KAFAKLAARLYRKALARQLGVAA [MMI-0400]	17
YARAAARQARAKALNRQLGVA (Mammalian) [MMI-0200]	47
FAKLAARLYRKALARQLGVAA [MMI-0300]	10

###

system: CaMKIIγ(h) (Homo sapiens, UniProt Q13555)
Sequence (Q13555 whole entry): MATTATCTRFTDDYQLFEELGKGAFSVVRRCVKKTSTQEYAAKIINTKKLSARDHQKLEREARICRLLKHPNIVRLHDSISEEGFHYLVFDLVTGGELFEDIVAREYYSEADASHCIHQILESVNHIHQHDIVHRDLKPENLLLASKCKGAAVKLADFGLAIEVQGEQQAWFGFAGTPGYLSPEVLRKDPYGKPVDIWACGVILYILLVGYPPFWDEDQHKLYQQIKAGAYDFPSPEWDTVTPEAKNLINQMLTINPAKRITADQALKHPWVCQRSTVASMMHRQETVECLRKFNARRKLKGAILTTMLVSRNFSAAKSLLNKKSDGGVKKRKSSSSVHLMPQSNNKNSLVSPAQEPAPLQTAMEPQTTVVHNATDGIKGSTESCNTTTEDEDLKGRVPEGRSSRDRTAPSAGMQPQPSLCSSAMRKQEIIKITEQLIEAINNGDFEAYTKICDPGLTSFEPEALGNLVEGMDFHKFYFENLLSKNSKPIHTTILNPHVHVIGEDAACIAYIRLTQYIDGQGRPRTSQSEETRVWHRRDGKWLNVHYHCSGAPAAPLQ
assay_explanation: Kinase Profiling Assay
Assay type: biochemical
conditions: 100 μM peptide
# Lookup of reported CaMKIIγ(h) % activity keyed by entry
measured_property: CaMKIIγ(h) % activity (%)

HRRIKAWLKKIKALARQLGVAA (Mammalian) [MMI-0500]	3
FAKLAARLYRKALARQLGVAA [MMI-0300]	5
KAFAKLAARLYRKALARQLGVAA [MMI-0400]	3
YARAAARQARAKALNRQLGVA (Mammalian) [MMI-0200]	94

###

system: EphA4(h) (Homo sapiens)
Sequence (P54764 20-986): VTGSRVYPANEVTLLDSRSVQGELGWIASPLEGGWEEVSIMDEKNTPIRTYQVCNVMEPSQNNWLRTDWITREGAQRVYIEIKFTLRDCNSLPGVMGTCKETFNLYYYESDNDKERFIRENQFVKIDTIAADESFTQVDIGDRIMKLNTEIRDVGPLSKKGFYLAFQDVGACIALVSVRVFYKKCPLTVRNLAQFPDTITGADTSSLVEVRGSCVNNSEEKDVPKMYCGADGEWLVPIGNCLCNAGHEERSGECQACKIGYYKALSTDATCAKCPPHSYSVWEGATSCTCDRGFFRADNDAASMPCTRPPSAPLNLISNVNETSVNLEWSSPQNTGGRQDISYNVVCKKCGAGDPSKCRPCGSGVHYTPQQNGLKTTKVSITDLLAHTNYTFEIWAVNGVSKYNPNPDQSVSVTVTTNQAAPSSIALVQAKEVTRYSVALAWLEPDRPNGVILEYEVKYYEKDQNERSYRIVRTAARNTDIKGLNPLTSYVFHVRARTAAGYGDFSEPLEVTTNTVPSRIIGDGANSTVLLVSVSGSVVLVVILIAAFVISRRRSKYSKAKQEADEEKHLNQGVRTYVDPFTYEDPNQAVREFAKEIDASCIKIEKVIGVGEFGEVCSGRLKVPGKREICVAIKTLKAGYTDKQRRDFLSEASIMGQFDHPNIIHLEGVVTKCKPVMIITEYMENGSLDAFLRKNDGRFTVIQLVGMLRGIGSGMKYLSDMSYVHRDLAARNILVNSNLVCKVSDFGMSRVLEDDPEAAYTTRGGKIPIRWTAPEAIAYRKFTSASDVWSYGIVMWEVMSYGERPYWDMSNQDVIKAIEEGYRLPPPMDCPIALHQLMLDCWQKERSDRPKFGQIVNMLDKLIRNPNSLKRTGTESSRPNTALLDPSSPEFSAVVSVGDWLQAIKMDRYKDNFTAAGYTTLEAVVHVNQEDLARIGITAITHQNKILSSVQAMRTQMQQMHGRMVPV
assay_explanation: Kinase Profiling Assay
Assay type: biochemical
conditions: 100 μM peptide
measured_property: EphA4(h) % activity (%)

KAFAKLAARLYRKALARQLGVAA [MMI-0400]	65
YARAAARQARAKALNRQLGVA (Mammalian) [MMI-0200]	127
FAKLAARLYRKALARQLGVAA [MMI-0300]	88
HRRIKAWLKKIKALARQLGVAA (Mammalian) [MMI-0500]	48

###

# Lookup of reported RIPK2(h) % activity keyed by entry
system: RIPK2(h) (Homo sapiens)
Construct: purchased Millipore (IC50 Profiler Express service)
Sequence (O43353 whole entry): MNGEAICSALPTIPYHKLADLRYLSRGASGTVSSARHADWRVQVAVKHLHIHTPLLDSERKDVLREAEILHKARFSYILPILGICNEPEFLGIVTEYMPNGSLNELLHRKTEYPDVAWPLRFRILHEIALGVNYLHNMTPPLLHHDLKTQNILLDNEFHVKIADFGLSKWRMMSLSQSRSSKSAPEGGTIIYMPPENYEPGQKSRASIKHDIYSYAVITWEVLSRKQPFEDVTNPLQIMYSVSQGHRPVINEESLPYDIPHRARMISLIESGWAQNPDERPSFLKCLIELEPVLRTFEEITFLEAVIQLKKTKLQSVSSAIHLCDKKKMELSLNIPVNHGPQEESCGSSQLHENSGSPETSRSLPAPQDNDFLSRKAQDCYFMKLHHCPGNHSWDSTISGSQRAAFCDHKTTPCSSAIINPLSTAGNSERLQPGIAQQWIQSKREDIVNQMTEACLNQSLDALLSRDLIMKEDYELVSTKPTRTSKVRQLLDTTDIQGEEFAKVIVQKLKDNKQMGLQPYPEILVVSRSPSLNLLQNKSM
assay_explanation: Kinase Profiling Assay
Format: biochemical
conditions: 100 μM peptide
measured_property: RIPK2(h) % activity (%)

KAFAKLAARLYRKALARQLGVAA [MMI-0400]	98
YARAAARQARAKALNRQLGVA (Mammalian) [MMI-0200]	98
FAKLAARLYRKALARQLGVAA [MMI-0300]	97
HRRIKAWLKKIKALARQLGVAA (Mammalian) [MMI-0500]	30

###

system: TAO2(h) (Homo sapiens)
Sequence (Q9UL54 1-1235): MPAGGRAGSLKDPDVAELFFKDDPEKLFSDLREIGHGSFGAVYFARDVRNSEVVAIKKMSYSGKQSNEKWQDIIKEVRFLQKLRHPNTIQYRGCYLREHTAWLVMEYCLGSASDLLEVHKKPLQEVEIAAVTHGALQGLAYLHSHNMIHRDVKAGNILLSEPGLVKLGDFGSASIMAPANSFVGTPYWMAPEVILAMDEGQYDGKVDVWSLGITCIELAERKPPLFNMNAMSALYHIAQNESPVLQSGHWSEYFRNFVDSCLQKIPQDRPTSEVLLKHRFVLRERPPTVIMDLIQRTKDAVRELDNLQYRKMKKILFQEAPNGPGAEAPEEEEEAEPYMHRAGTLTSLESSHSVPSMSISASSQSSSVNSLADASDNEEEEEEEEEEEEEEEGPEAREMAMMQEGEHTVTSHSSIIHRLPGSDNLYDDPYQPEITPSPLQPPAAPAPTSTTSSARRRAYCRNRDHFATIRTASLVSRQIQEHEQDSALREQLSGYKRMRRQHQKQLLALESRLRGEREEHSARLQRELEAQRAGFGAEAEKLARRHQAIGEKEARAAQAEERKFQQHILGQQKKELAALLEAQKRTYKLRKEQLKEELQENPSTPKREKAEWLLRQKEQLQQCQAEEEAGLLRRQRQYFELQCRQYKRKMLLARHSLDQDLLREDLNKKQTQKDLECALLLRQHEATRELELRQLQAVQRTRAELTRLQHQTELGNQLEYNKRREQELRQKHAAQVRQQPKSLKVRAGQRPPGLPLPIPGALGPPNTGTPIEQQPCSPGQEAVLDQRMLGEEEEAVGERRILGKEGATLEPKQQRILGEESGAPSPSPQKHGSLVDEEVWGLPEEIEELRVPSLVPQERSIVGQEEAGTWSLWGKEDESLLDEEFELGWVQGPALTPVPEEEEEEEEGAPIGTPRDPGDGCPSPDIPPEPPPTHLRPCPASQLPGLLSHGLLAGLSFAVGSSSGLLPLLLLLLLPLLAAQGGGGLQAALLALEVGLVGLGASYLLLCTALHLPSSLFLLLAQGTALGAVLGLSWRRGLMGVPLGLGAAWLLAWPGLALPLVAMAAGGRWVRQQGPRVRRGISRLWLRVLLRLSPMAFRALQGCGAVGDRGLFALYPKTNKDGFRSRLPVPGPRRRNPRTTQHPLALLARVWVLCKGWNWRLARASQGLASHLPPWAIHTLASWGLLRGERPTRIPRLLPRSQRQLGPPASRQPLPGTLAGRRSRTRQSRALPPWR
assay_explanation: Kinase Profiling Assay
Format: biochemical
conditions: 100 μM peptide
measured_property: TAO2(h) % activity

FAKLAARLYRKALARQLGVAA [MMI-0300]	70%
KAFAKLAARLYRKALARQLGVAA [MMI-0400]	74%
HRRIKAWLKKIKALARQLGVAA (Mammalian) [MMI-0500]	15%
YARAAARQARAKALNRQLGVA (Mammalian) [MMI-0200]	93%
